// provenance: ChEMBL document CHEMBL1153595

# TARGET OR TEST SYSTEM: Mitogen-activated protein kinase 1 (Homo sapiens, UniProt P28482)
# Sequence (P28482 whole entry): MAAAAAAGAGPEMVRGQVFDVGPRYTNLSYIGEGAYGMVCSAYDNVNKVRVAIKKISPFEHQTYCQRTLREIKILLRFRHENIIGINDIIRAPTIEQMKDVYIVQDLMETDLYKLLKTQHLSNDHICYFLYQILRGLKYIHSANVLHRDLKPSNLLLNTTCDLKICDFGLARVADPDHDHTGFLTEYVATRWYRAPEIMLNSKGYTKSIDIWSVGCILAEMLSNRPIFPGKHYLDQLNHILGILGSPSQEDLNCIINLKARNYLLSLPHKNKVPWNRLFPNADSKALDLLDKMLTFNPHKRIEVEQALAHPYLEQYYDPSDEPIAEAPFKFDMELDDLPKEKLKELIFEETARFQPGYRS
# ASSAY OVERVIEW: Inhibition of ERK2 by spectrophotometric coupled enzyme assay
Assignment: determine reported Ki for the given compounds.

Examples from the recorded data:
C=Cc1cccc2c1/C(=N/O)C(=O)N2Cc1cc(F)cc2c1OCOC2 : > 15 µM
CCc1cccc2c1/C(=N/O)C(=O)N2Cc1cc(F)cc2c1OCOC2 : > 15 µM
O=C1/C(=N\O)c2c(CCc3ccccc3)cccc2N1Cc1cc(F)cc2c1OCOC2 : > 15 µM
O=C1/C(=N\O)c2c(-c3ccc(F)cc3)cccc2N1Cc1cc(F)cc2c1OCOC2 : > 15 µM

Could I get Ki for every one of these entries?
1. O=C1/C(=N\O)c2c(-c3ccccc3)cccc2N1Cc1cc(F)cc2c1OCOC2
2. O=C1/C(=N\O)c2c(-c3cccc(F)c3)cccc2N1Cc1cc(F)cc2c1OCOC2
3. Cc1cccc2c1/C(=N/O)C(=O)N2Cc1cc(F)cc2c1OCOC2
4. COC(=O)c1cccc2c1/C(=N/O)C(=O)N2Cc1cc(F)cc2c1OCOC2
5. Cc1ccc2c(c1)N(Cc1cc(F)cc3c1OCOC3)C(=O)/C2=N\O

Result:
1: 25 µM; 2: 23 µM; 3: > 15 µM; 4: > 15 µM; 5: > 50 µM

Q: Recall and state the measured Ki for O=C1/C(=N\O)c2c(Br)cccc2N1Cc1cc(F)cc2c1OCOC2 .
Result: > 15 µM
